tested_system: UniProtKB O60725
test_summary: Inhibition of human Icmt by methanol vapour diffusion assay
endpoint_label: IC50 (µM)

Would you please look over these solved cases?
COc1ccc(-c2ccc(C(=O)N[C@@H](CSC/C=C(\C)CC/C=C(\C)CCC=C(C)C)C(=O)O)o2)cc1 ... 17.4
CC(C)=CCC/C(C)=C/CC/C(C)=C/CSC[C@H](NC(=O)c1cc2ccccc2s1)C(=O)O ... 20.3
CC(C)=CCC/C(C)=C/CC/C(C)=C/CSC[C@H](NC(=O)c1ccc([N+](=O)[O-])cc1)C(=O)O ... 16.6

P: CC(C)=CCC/C(C)=C/CC/C(C)=C/CSC[C@H](NC(=O)c1cc(Cl)cc(Cl)c1)C(=O)O
Q: CC(C)=CCC/C(C)=C/CC/C(C)=C/CSC[C@H](NC(=O)c1cc([N+](=O)[O-])cc([N+](=O)[O-])c1)C(=O)O
INPUT: Please let me know which one, P or Q , has a lower measured IC50 value. Select an item and report its label.
OUTPUT: Q

* * *

tested_system: Protein-S-isoprenylcysteine O-methyltransferase (Homo sapiens, UniProt O60725)
Sequence (O60725 whole entry): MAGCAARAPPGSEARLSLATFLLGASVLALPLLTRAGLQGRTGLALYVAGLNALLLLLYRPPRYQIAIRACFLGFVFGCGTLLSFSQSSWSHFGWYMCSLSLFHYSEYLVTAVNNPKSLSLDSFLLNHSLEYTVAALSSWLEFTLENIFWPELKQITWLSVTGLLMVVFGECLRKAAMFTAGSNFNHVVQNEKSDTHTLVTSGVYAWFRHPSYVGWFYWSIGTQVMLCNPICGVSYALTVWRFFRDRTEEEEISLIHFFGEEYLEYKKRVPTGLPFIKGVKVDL
test_summary: Inhibition of human Icmt in Saccharomyces cerevisiae cell membrane relative to control by SPA; values are per cent of control
Design: concentration or dose not given beside the values
endpoint_label: residual activity (%)

CC(C)=CCC/C(C)=C/CC/C(C)=C/CSC[C@H](NC(=O)c1cc([N+](=O)[O-])cc([N+](=O)[O-])c1)C(=O)O ... 37.1

A: CC(C)=CCC/C(C)=C/CC/C(C)=C/CSC[C@H](NC(=O)c1cc2ccccc2s1)C(=O)O
B: CC(C)=CCC/C(C)=C/CC/C(C)=C/CSC[C@H](NC(=O)c1ccc([N+](=O)[O-])cc1)C(=O)O
INPUT: Pick one, A or B : lowest reported residual activity. Answer = label.
OUTPUT: A
